Item-by-item account of remaining activity at 2500 µM
# Measured Target: E. coli DdlB enzyme (D-alanine:D-alanine ligase) (Escherichia coli, UniProt P07862)
# Construct: made in house; host or cells: E. coli
# Experimental Details: biochemical
# Condition Context: residual activity of DdlB; fragment library screening; tested concentration 2.5 mM; read-out: DdlB RA
Report the value in % with no unit label.

[
  {
    "Chem Smiles": "O=C(O)c1ccc2cc(O)ccc2c1",
    "Unit": "%",
    "remaining activity at 2500 µM": 94
  },
  {
    "Chem Smiles": "O=[N+]([O-])c1ccc(Cl)nc1",
    "Unit": "%",
    "remaining activity at 2500 µM": 92
  },
  {
    "Chem Smiles": "CCc1cccc(N)n1",
    "Unit": "%",
    "remaining activity at 2500 µM": 100
  },
  {
    "Chem Smiles": "CN(C)c1ccc(C(=O)O)cc1",
    "Unit": "%",
    "remaining activity at 2500 µM": 93
  }
]

# assay system E. coli DdlB enzyme (D-alanine:D-alanine ligase) (Escherichia coli, UniProt P07862): give remaining activity at 2500 µM of `O=C(O)c1cc(O)ccc1Cl`
94

# assay system E. coli DdlB enzyme (D-alanine:D-alanine ligase) (Escherichia coli, UniProt P07862): give remaining activity at 2500 µM of `O=[N+]([O-])c1ccc(O)c(Cl)c1`
97

# assay system E. coli DdlB enzyme (D-alanine:D-alanine ligase) (Escherichia coli, UniProt P07862): give remaining activity at 2500 µM of `COc1cc(N)ccn1`
97

# assay system E. coli DdlB enzyme (D-alanine:D-alanine ligase) (Escherichia coli, UniProt P07862): give remaining activity at 2500 µM of `Nc1ccc(Br)cc1N`
90

# assay system E. coli DdlB enzyme (D-alanine:D-alanine ligase) (Escherichia coli, UniProt P07862): give remaining activity at 2500 µM of `Cc1ccccc1C(=O)NCC(=O)O`
100

# assay system E. coli DdlB enzyme (D-alanine:D-alanine ligase) (Escherichia coli, UniProt P07862): give remaining activity at 2500 µM of `O=C(O)Cc1cccs1`
95

###

# Measured Target: E. coli DdlB enzyme (D-alanine:D-alanine ligase) (Escherichia coli, UniProt P07862)
# Construct: made in house; host or cells: E. coli
# Experimental Details: biochemical
# Condition Context: residual activity; tested concentration 2.1 mM; read-out: DdlB RA
# Method: The fragment library was assayed in a DdlB inhibition assay, where fragments were tested for their ability to inhibit the D-Ala-adding activity of DdlB ligase. The orthophosphate formed during the enzymatic reaction was measured spectrophotometrically using malachite green reagent. A recombinant E. coli DdlB enzyme (D-alanine:D-alanine ligase) was expressed in E. coli[11]. […] The final DMSO concentration was 5%. […] All experiments were performed in duplicates. […]
Item-by-item account of remaining activity at 2100 µM
Report the value in % with no unit label.

[
  {
    "Compound": "Cc1ccccc1N(C)C(=O)Cc1noc2ccccc12 [Compound E207-0386]",
    "Measured Number": 102
  }
]

Tell me its remaining activity at 2100 µM given O=C(O)C1CCCCN1S(=O)(=O)c1ccc(F)cc1 (stereo not drawn) [Compound C155-0476] as the entry.
90

Tell me its remaining activity at 2100 µM given CN1CCN(S(=O)(=O)c2cccc3cccnc23)CC1 [Compound 8006-7667] as the entry.
60

Where do these numbers come from? They come from paper PMC9718554.
